Sourced from patent US20230286943A1

biological target: human recombinant IL-17A (Homo sapiens (Human)); assay: IL-17A AlphaLISA Assay (competition: block binding of IL-17A to its receptor IL-17RA); conditions: compounds pre-incubated with IL-17A for 30 min (indicated by *)
Sequence (Q16552 24-155): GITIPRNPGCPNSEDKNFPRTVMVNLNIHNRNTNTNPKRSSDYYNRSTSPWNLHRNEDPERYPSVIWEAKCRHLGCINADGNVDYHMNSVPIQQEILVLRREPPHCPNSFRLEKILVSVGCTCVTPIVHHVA
Marks after values point to notes of the source that are not given here.
endpoint.label: AlphaLISA pIC50

>  <molecule>
Cc1c(-c2ccc(NC(=O)[C@@H](NC(=O)c3ccnn3C)C3CCC(F)(F)CC3)cc2)ccc(=O)n1C

>  <endpoint.label>
AlphaLISA pIC50

>  <observed>
6.0*

$$$$
>  <molecule>
COc1c(-c2ccc(NC(=O)[C@@H](NC(=O)c3ccnn3C)[C@H]3CC[C@H](C)CC3)nc2)ccnc1C

>  <endpoint.label>
AlphaLISA pIC50

>  <observed>
6.1*

$$$$
>  <molecule>
Cc1cnn(C)c1-c1ncc(NC(=O)[C@@H](NC(=O)c2ccnn2C)[C@H]2CC[C@H](C)CC2)cc1F

>  <endpoint.label>
AlphaLISA pIC50

>  <observed>
6.3*

$$$$
>  <molecule>
Cc1nsc(C)c1-c1ccc(NC(=O)[C@@H](NC(=O)c2cnnn2C)[C@H]2CC[C@H](C)CC2)nc1

>  <endpoint.label>
AlphaLISA pIC50

>  <observed>
6.0*

$$$$
>  <molecule>
Cc1cnn(C)c1-c1ccc(NC(=O)[C@@H](NC(=O)c2ccnn2C)C2CCCC2)nc1

>  <endpoint.label>
AlphaLISA pIC50

>  <observed>
6.1*

$$$$
>  <molecule>
Cc1c(-c2ccc(NC(=O)[C@@H](NC(=O)c3ccnn3C)C3CCC(C)(C)CC3)cc2)ccc(=O)n1C

>  <endpoint.label>
AlphaLISA pIC50

>  <observed>
6.0*

$$$$
>  <molecule>
Cc1nnn(C)c1-c1ccc(NC(=O)[C@@H](NC(=O)c2ccnn2C)[C@H]2CC[C@H](C)CC2)nc1

>  <endpoint.label>
AlphaLISA pIC50

>  <observed>
6.8*

$$$$
>  <molecule>
CCn1nccc1C(=O)N[C@H](C(=O)Nc1cnc(-c2c(C)cnn2C)c(F)c1)[C@H]1CC[C@H](C)CC1

>  <endpoint.label>
AlphaLISA pIC50

>  <observed>
6.8*

$$$$
>  <molecule>
CCn1nccc1C(=O)N[C@H](C(=O)Nc1ccc(-c2c(C)c[n+]([O-])cc2C)cn1)[C@H]1CC[C@H](C)CC1

>  <endpoint.label>
AlphaLISA pIC50

>  <observed>
6.9*

$$$$
